Cited source: patent US20220211812A1

Each entry below lists one item and its recorded hRXFP1/CHO-K1 cAMP EC50 (nM, avg) value.
- Target of assay: T1, human RXFP1 receptor (human, UniProt Q9HBX9 1-757)
- T1 sequence (looked up): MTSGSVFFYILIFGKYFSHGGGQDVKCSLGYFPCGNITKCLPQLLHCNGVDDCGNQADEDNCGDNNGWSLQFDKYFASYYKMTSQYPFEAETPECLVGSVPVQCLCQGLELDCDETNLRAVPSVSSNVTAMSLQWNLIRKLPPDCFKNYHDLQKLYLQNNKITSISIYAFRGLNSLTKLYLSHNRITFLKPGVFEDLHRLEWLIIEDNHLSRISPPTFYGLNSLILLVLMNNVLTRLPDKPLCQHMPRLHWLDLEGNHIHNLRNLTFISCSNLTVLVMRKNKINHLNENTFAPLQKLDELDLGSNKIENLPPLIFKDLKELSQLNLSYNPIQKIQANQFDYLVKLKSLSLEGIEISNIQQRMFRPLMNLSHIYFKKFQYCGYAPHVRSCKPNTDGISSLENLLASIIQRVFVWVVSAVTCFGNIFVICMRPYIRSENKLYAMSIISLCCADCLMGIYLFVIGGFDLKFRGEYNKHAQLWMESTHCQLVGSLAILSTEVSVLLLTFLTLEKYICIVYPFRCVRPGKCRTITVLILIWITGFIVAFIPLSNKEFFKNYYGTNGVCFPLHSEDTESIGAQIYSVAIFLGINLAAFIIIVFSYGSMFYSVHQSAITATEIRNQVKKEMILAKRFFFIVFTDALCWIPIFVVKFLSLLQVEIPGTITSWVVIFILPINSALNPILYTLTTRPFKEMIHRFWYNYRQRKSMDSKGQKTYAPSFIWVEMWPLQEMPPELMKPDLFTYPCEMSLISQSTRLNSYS
- Method summary: cell-based or functional assay
Square brackets hold non-standard residues; d marks the D form. Ends that are not written are not given here. Phe(4-Ac) = CC(=O)c1ccc(C[C@H](N)C(=O)O)cc1
Supply the numeric figure in nM, leaving out any unit text.

See these solved cases before continuing.
Input line: Value lookup for hRXFP1/CHO-K1 cAMP EC50 (nM, avg); key = RLX-BM25/AN1 (ligand, disulfide (positions not given here); ends not checked) chain 1: NLYSALANKCCHVGCTKRSLARFC chain 2: ASWMEEVIKLCGRELVRAQIAICG[Phe(4-Ac)]STWS
Output line: 0.09

Input line: Value lookup for hRXFP1/CHO-K1 cAMP EC50 (nM, avg); key = AQ1-EEEEEE-Glu^γ-C14-CH3 (ligand, not fully specified; Glu^γ bonded by amide to fatty acid -C14-CH3; oxime-linked to pAcF of the A chain; pAcF (para-acetyl-L-phenylalanine) at position 1, oxime-linked to PK enhancer EEEEEE-Glu^γ-C14-CH3) chain 1: XLYSALANKCCHVGCTKRSLARFC chain 2: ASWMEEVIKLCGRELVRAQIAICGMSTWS peptide: EEEEEEE
Output line: 0.38

Input line: Value lookup for hRXFP1/CHO-K1 cAMP EC50 (nM, avg); key = AQ1-KKKSGGSGG-Glu^γ-C13-COOH (ligand, not fully specified; Glu^γ bonded by amide to fatty acid -C13-COOH; oxime-linked to pAcF of the A chain; pAcF (para-acetyl-L-phenylalanine) at position 1, oxime-linked to PK enhancer KKKSGGSGG-Glu^γ-C13-COOH) chain 1: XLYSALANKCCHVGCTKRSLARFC chain 2: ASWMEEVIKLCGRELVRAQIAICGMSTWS peptide: KKKSGGSGGE
Output line: 0.14

Input line: Value lookup for hRXFP1/CHO-K1 cAMP EC50 (nM, avg); key = AQ1-EEEEPEEEEPEEEEPEEEE-Glu^γ-C15-CH3 (ligand, not fully specified; Glu^γ bonded by amide to fatty acid -C15-CH3; oxime-linked to pAcF of the A chain; pAcF (para-acetyl-L-phenylalanine) at position 1, oxime-linked to PK enhancer EEEEPEEEEPEEEEPEEEE-Glu^γ-C15-CH3) chain 1: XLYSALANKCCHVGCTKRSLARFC chain 2: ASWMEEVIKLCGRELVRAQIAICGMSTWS peptide: EEEEPEEEEPEEEEPEEEEE
Output line: 0.34

Next binder, please.
Input line: Value lookup for hRXFP1/CHO-K1 cAMP EC50 (nM, avg); key = AQ1-Sar-Sar-Sar-Sar-Ser-Sar-Sar-Sar-Sar-Glu^γ-C13-COOH (ligand, not fully specified; Sar = sarcosine (N-methylglycine); Glu^γ bonded by amide to fatty acid -C13-COOH; oxime-linked to pAcF of the A chain; pAcF (para-acetyl-L-phenylalanine) at position 1, oxime-linked to PK enhancer Sar-Sar-Sar-Sar-Ser-Sar-Sar-Sar-Sar-Glu^γ-C13-COOH) chain 1: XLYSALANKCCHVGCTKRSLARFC chain 2: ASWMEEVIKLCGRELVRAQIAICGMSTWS peptide: XXXXSXXXXE
Output line: 0.39
